What MIC was measured for each of the following?
test system: P. aeruginosa MP-3; assay: Broth dilution MIC determination (CLSI), P. aeruginosa MP-3; type: cell-based; conditions: Pseudomonas aeruginosa, MP3; strain MP-3, broth dilution

Value of measured MIC for the entry `CO[C@]1(C)C[C@@H](C)CN(C)[C@H](C2CCN(C(C)C)CC2)COC(=O)C(C)(C)C(=O)[C@H](C)[C@H]1O[C@@H]1O[C@H](C)C[C@H](N(C)C)[C@H]1O` : > 32 µg/mL

Value of measured MIC for the entry CO[C@]1(C)C[C@@H](C)CN(C)[C@H](C2CC3CCC(C2)N3C(=O)CN(C)C)COC(=O)C(C)(C)C(=O)[C@H](C)[C@H]1O[C@@H]1O[C@H](C)C[C@H](N(C)C)[C@H]1O (stereo partly drawn) : > 32 µg/mL

Value of measured MIC for the entry `CO[C@]1(C)C[C@@H](C)CN(C)[C@H](C2CN(C(=O)CNC(C)(C)C)C2)COC(=O)C(C)(C)C(=O)[C@H](C)[C@H]1O[C@@H]1O[C@H](C)C[C@H](N(C)C)[C@H]1O` : > 32 µg/mL

* * *

system: S. aureus MP-12; experiment: Broth dilution MIC determination (CLSI), S. aureus MP-12; format: cell-based; details: Staphylococcus aureus, MP12; strain MP-12, broth dilution
readout name: MIC

Value of measured MIC for the entry CO[C@]1(C)C[C@@H](C)CN(C)[C@@H]([C@H]2CCCN(C)C2)COC(=O)C(C)(C)C(=O)[C@H](C)[C@H]1O[C@@H]1O[C@H](C)C[C@H](N(C)C)[C@H]1O [Compound 89] : > 32 µg/mL

Value of measured MIC for the entry CCN1CCC([C@H]2COC(=O)C(C)(C)C(=O)[C@H](C)[C@@H](O[C@@H]3O[C@H](C)C[C@H](N(C)C)[C@H]3O)[C@](C)(OC)C[C@@H](C)CN2C)CC1 [Compound 175] : 4 to 32 µg/mL

Value of measured MIC for the entry CO[C@]1(C)C[C@@H](C)CN(C)[C@H](C2CN(C(=O)CC(C)(C)CN(C)CC(C)C)C2)COC(=O)C(C)(C)C(=O)[C@H](C)[C@H]1O[C@@H]1O[C@H](C)C[C@H](N(C)C)[C@H]1O [Compound 167] : 4 to 32 µg/mL

* * *

system: S. aureus MP-12; assay: Broth dilution MIC determination (CLSI), S. aureus MP-12; format: cell-based; settings: Staphylococcus aureus, MP12; strain MP-12, broth dilution
What MIC was measured for each of the following?

Value of measured MIC for the entry `CO[C@]1(C)C[C@@H](C)CN(C)[C@H](C2CN(C(=O)CC(C)(C)CN(C)CC3CC3)C2)COC(=O)C(C)(C)C(=O)[C@H](C)[C@H]1O[C@@H]1O[C@H](C)C[C@H](N(C)C)[C@H]1O` : 4 to 32 µg/mL

Value of measured MIC for the entry `CO[C@]1(C)C[C@@H](C)CN(C)[C@](C)(C2CCN(C)CC2)COC(=O)C(C)(C)C(=O)[C@H](C)[C@H]1O[C@@H]1O[C@H](C)C[C@H](N(C)C)[C@H]1O` : > 32 µg/mL

Value of measured MIC for the entry `CO[C@]1(C)C[C@@H](C)CN(C)[C@H](C2CN(Cc3ccn(C)n3)C2)COC(=O)C(C)(C)C(=O)[C@H](C)[C@H]1O[C@@H]1O[C@H](C)C[C@H](N(C)C)[C@H]1O` : 4 to 32 µg/mL

Value of measured MIC for the entry `CO[C@]1(C)C[C@@H](C)CN(C)[C@H](C2CN(CC3CCC3)C2)COC(=O)C(C)(C)C(=O)[C@H](C)[C@H]1O[C@@H]1O[C@H](C)C[C@H](N(C)C)[C@H]1O` : 4 to 32 µg/mL

Value of measured MIC for the entry `CCN1C[C@H](C)C[C@@](C)(OC)[C@H](O[C@@H]2O[C@H](C)C[C@H](N(C)C)[C@H]2O)[C@@H](C)C(=O)C(C)(C)C(=O)OC[C@H]1C1CN(C(=O)CN(C)C)C1` : 4 to 32 µg/mL

Value of measured MIC for the entry `CCC(=O)N1CCC([C@@H]2COC(=O)C(C)(C)C(=O)[C@H](C)[C@@H](O[C@@H]3O[C@H](C)C[C@H](N(C)C)[C@H]3O)[C@](C)(OC)C[C@@H](C)CN2C)CC1` : 4 to 32 µg/mL

Value of measured MIC for the entry `CO[C@]1(C)C[C@@H](C)CN(C)[C@H](C2CN(CC=C(C)C)C2)COC(=O)C(C)(C)C(=O)[C@H](C)[C@H]1O[C@@H]1O[C@H](C)C[C@H](N(C)C)[C@H]1O` : 4 to 32 µg/mL

Value of measured MIC for the entry `CO[C@]1(C)C[C@@H](C)CN(C)[C@H](C2CN(C(=O)CN3CCCC3)C2)COC(=O)C(C)(C)C(=O)[C@H](C)[C@H]1O[C@@H]1O[C@H](C)C[C@H](N(C)C)[C@H]1O` : 4 to 32 µg/mL

Value of measured MIC for the entry `CO[C@]1(C)C[C@@H](C)CN(C)[C@@H](C2CN(C(=O)C(C)(C)N(C)C)C2)COC(=O)C(C)(C)C(=O)[C@H](C)[C@H]1O[C@@H]1O[C@H](C)C[C@H](N(C)C)[C@H]1O` : > 32 µg/mL

Value of measured MIC for the entry `CO[C@]1(C)C[C@@H](C)CN(C)[C@H](C2CCN(C(C)C)CC2)COC(=O)C(C)(C)C(=O)[C@H](C)[C@H]1O[C@@H]1O[C@H](C)C[C@H](N(C)C)[C@H]1O` : > 32 µg/mL

Value of measured MIC for the entry `CO[C@]1(C)C[C@@H](C)CN(C)[C@H](C2CCN(CC(C)C)CC2)COC(=O)C(C)(C)C(=O)[C@H](C)[C@H]1O[C@@H]1O[C@H](C)C[C@H](N(C)C)[C@H]1O` : 4 to 32 µg/mL

Value of measured MIC for the entry `CO[C@]1(C)C[C@@H](C)CN(C)[C@H](C2CN(C(=O)CN3CCC3)C2)COC(=O)C(C)(C)C(=O)[C@H](C)[C@H]1O[C@@H]1O[C@H](C)C[C@H](N(C)C)[C@H]1O` : > 32 µg/mL

Value of measured MIC for the entry `CO[C@]1(C)C[C@@H](C)CN(C)[C@H](c2ccc(B(O)O)cc2)COC(=O)C(C)(C)C(=O)[C@H](C)[C@H]1O[C@@H]1O[C@H](C)C[C@H](N(C)C)[C@H]1O` : > 32 µg/mL

Value of measured MIC for the entry `CO[C@]1(C)C[C@@H](C)CN(C)[C@H](C2CN(Cc3cc(C)on3)C2)COC(=O)C(C)(C)C(=O)[C@H](C)[C@H]1O[C@@H]1O[C@H](C)C[C@H](N(C)C)[C@H]1O` : 4 to 32 µg/mL

Value of measured MIC for the entry CCCN1C2CCC1CC([C@@H]1COC(=O)C(C)(C)C(=O)[C@H](C)[C@@H](O[C@@H]3O[C@H](C)C[C@H](N(C)C)[C@H]3O)[C@](C)(OC)C[C@@H](C)CN1C)C2 (stereo partly shown) : < 4 µg/mL

Value of measured MIC for the entry `CO[C@]1(C)C[C@@H](C)CN(C)[C@@H](C2CCN(C[C@@H]3COC(=O)N3C)CC2)CO[C@@H](O)C(C)(C)C(=O)[C@H](C)[C@H]1O[C@@H]1O[C@H](C)C[C@H](N(C)C)[C@H]1O` : > 32 µg/mL

Value of measured MIC for the entry `CO[C@]1(C)C[C@@H](C)CN(C)[C@@H](C2CCN(CC3CC3)CC2)COC(=O)C(C)(C)C(=O)[C@H](C)[C@H]1O[C@@H]1O[C@H](C)C[C@H](N(C)C)[C@H]1O` : 4 to 32 µg/mL

Value of measured MIC for the entry `CO[C@]1(C)C[C@@H](C)CN(C)[C@@H]([C@H]2CCN(C(=O)CN(C)C)C2)COC(=O)C(C)(C)C(=O)[C@H](C)[C@H]1O[C@@H]1O[C@H](C)C[C@H](N(C)C)[C@H]1O` : > 32 µg/mL

Value of measured MIC for the entry `CO[C@]1(C)C[C@@H](C)CN(C)[C@H](C2CCN(CC(F)F)CC2)COC(=O)C(C)(C)C(=O)[C@H](C)[C@H]1O[C@@H]1O[C@H](C)C[C@H](N(C)C)[C@H]1O` : 4 to 32 µg/mL

* * *

test system: S. aureus MP-12; test: Broth dilution MIC determination (CLSI), S. aureus MP-12; assay type: cell-based; details: Staphylococcus aureus, MP12; strain MP-12, broth dilution
readout name: MIC

Value of measured MIC for the entry `CO[C@]1(C)C[C@@H](C)CN(C)[C@H]([C@@H]2CCN(C(C)C)C2)COC(=O)C(C)(C)C(=O)[C@H](C)[C@H]1O[C@@H]1O[C@H](C)C[C@H](N(C)C)[C@H]1O` : > 32 µg/mL

Value of measured MIC for the entry `CO[C@]1(C)C[C@@H](C)CN(C)[C@H](C2CCN(CC(F)(F)F)CC2)COC(=O)C(C)(C)C(=O)[C@H](C)[C@H]1O[C@@H]1O[C@H](C)C[C@H](N(C)C)[C@H]1O` : 4 to 32 µg/mL

Value of measured MIC for the entry `CO[C@]1(C)C[C@@H](C)CN(C)[C@H](C2CCN(S(C)(=O)=O)CC2)COC(=O)C(C)(C)C(=O)[C@H](C)[C@H]1O[C@@H]1O[C@H](C)C[C@H](N(C)C)[C@H]1O` : 4 to 32 µg/mL

Value of measured MIC for the entry `CO[C@]1(C)C[C@@H](C)CN(C)[C@H](C2CN(CC3CC3)C2)COC(=O)C(C)(C)C(=O)[C@H](C)[C@H]1O[C@@H]1O[C@H](C)C[C@H](N(C)C)[C@H]1O` : 4 to 32 µg/mL

Value of measured MIC for the entry `CO[C@]1(C)C[C@@H](C)CN(C)[C@H](C2CN(CC3CC3)C2)[C@@H](C)OC(=O)C(C)(C)C(=O)[C@H](C)[C@H]1O[C@@H]1O[C@H](C)C[C@H](N(C)C)[C@H]1O` : > 32 µg/mL

Value of measured MIC for the entry `CO[C@]1(C)C[C@@H](C)CN(C)[C@@H](C2CCCCC2)COC(=O)C(C)(C)C(=O)[C@H](C)[C@H]1O[C@@H]1O[C@H](C)C[C@H](N(C)C)[C@H]1O` : > 32 µg/mL

Value of measured MIC for the entry `CO[C@]1(C)C[C@@H](C)CN(C)[C@](C)(C2CCN(C(C)C)CC2)COC(=O)C(C)(C)C(=O)[C@H](C)[C@H]1O[C@@H]1O[C@H](C)C[C@H](N(C)C)[C@H]1O` : 4 to 32 µg/mL

Value of measured MIC for the entry `CO[C@]1(C)C[C@@H](C)CN(C)[C@H](c2ccc(Br)cc2)COC(=O)C(C)(C)C(=O)[C@H](C)[C@H]1O[C@@H]1O[C@H](C)C[C@H](N(C)C)[C@H]1O` : > 32 µg/mL

Value of measured MIC for the entry `CO[C@]1(C)C[C@@H](C)CN(C)[C@@H]([C@@H]2CCCN(C)C2)COC(=O)C(C)(C)C(=O)[C@H](C)[C@H]1O[C@@H]1O[C@H](C)C[C@H](N(C)C)[C@H]1O` : > 32 µg/mL

Value of measured MIC for the entry `CO[C@]1(C)C[C@@H](C)CN(C)[C@H]([C@H]2C[C@H](N(C)C)C2)COC(=O)C(C)(C)C(=O)[C@H](C)[C@H]1O[C@@H]1O[C@H](C)C[C@H](N(C)C)[C@H]1O` : 4 to 32 µg/mL

Value of measured MIC for the entry `CO[C@]1(C)C[C@@H](C)CN(C)[C@H](C2CN(C(=O)CN(C)C)C2)COC(=O)C(C)(C)C(=O)[C@H](C)[C@H]1O[C@@H]1O[C@H](C)C[C@H](N(C)C)[C@H]1O` : 4 to 32 µg/mL

Value of measured MIC for the entry `CO[C@]1(C)C[C@@H](C)CN(C)[C@H](C2CN(C(=O)[C@@H]3CCN(C)C3)C2)COC(=O)C(C)(C)C(=O)[C@H](C)[C@H]1O[C@@H]1O[C@H](C)C[C@H](N(C)C)[C@H]1O` : 4 to 32 µg/mL

Value of measured MIC for the entry `CO[C@]1(C)C[C@@H](C)CN(C)[C@H](C2CN(Cc3cnccn3)C2)COC(=O)C(C)(C)C(=O)[C@H](C)[C@H]1O[C@@H]1O[C@H](C)C[C@H](N(C)C)[C@H]1O` : 4 to 32 µg/mL

Value of measured MIC for the entry `CO[C@]1(C)C[C@@H](C)CN(C)[C@H](C2CN(C(=O)CN3Cc4ccccc4C3)C2)COC(=O)C(C)(C)C(=O)[C@H](C)[C@H]1O[C@@H]1O[C@H](C)C[C@H](N(C)C)[C@H]1O` : 4 to 32 µg/mL

Value of measured MIC for the entry `CO[C@]1(C)C[C@@H](C)CN(C)[C@H](C2CCN(C(=O)CN(C)C)CC2)COC(=O)C(C)(C)C(=O)[C@H](C)[C@H]1O[C@@H]1O[C@H](C)C[C@H](N(C)C)[C@H]1O` : > 32 µg/mL

Value of measured MIC for the entry `CO[C@]1(C)C[C@@H](C)CN(C)[C@H](C2CN(CC(=O)O)C2)COC(=O)C(C)(C)C(=O)[C@H](C)[C@H]1O[C@@H]1O[C@H](C)C[C@H](N(C)C)[C@H]1O` : > 32 µg/mL

Value of measured MIC for the entry `CO[C@]1(C)C[C@@H](C)CN(C)[C@H](C2CN(CC(C)(C)C)C2)COC(=O)C(C)(C)C(=O)[C@H](C)[C@H]1O[C@@H]1O[C@H](C)C[C@H](N(C)C)[C@H]1O` : 4 to 32 µg/mL

Value of measured MIC for the entry `CO[C@]1(C)C[C@@H](C)CN(C)[C@H](C2CCN(C)CC2)COC(=O)C(C)(C)C(=O)[C@H](C)[C@H]1O[C@@H]1O[C@H](C)C[C@H](N(C)C)[C@H]1O` : 4 to 32 µg/mL

Value of measured MIC for the entry `CO[C@]1(C)C[C@@H](C)CN(C)[C@@H]([C@@H]2CCN(C(=O)CN(C)C)C2)COC(=O)C(C)(C)C(=O)[C@H](C)[C@H]1O[C@@H]1O[C@H](C)C[C@H](N(C)C)[C@H]1O` : 4 to 32 µg/mL
